The reported numbers originate from patent US20240316022A1.

Target: FGFR3-BAIAP2L1 Ba/F3 (Homo sapiens, UniProt P22607)
Construct: host or cells: Ba/F3; the other entry of the earlier key: BAIAP2L1 (Q9UHR4, BAR/IMD domain-containing adapter protein 2-like 1)
Sequence (P22607 397-758 limits assumed): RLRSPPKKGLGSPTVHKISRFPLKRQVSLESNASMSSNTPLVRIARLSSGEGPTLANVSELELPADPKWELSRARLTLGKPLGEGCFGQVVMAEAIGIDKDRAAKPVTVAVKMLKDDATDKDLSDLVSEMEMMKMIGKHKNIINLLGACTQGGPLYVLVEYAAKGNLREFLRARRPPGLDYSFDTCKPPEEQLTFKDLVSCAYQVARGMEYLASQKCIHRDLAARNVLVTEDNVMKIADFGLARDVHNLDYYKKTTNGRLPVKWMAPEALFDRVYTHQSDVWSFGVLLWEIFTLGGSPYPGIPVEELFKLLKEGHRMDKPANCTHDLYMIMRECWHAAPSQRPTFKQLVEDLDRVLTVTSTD
Experiment: Ba/F3 cell viability assay (CellTiter-Glo 2.0)
Format: cell-based
Conditions: Ba/F3 FGFR3-BAIAP2L1 cells, 48 hours
# IC50 values compiled below

Worked examples, 3 compounds total:
Cc1ncc(Cl)c([C@@H](C)Oc2ccc3[nH]nc(-c4ccc5c(c4)COC4(CCN(CC(F)F)CC4)O5)c3c2)c1Cl: 100 to 250 nM
Cc1ncc(Cl)c([C@@H](C)Oc2ccc3[nH]nc(-c4ccc(NC5CCOCC5)nc4)c3c2)c1Cl: 0.1 to 100 nM
CCN1CCC2(CC1)OCc1cc(-c3n[nH]c4ccc(O[C@H](C)c5c(C)cnnc5C)cc34)ccc1O2: 0.1 to 100 nM

We now examine a further compound.
Prompt line: What IC50 value was documented for this compound, "Cc1cnnc(C)c1[C@@H](C)Oc1ccc2[nH]nc(-c3cc(C#N)cc(OCCO)c3)c2c1" ?
Response line: 0.1 to 100 nM
